Where do these numbers come from? They come from the Immune Epitope Database (IEDB).

Target Of Assay: HLA-B*40:01
Test Name: IEDB peptide-MHC binding, purified MHC/competitive/fluorescence; filed as Kd, often an IC50 or EC50 that approximates it; bounds were set here for any values at or beyond the usual limits of such assays
Condition Set: source organism: Cryptosporidium parvum Iowa II
pKd: −log10 of the molar value.
Measured Parameter: pKd

{"columns": ["Residue String", "Target Of Assay", "Recorded Result"],
 "data": [
  ["FTWQHNYYL", "HLA-B*40:01", "≤ 5.30"]
]}

###

Target Of Assay: HLA-B*15:01
Test Name: IEDB peptide-MHC binding, purified MHC/competitive/fluorescence; filed as Kd, often an IC50 or EC50 that approximates it; bounds were set here for any values at or beyond the usual limits of such assays
Condition Set: source organism: Escherichia coli str. K-12 substr. MG1655
pKd: −log10 of the molar value.
Here the recorded pKd is given for each entry.
Measured Parameter: pKd

{"columns": ["Residue String", "Recorded Result"],
 "data": [
  ["ALKANNKVY", 6.15],
  ["ANNKVYEAY", 6.30]
]}
